- assay-notes: Primary qHTS to identify inhibitors of SARS-CoV-2 cell entry (AID 1645846); note: nearly all actives have a fitted effect of over 45% in size
- condition-description: SARS-CoV-2 pseudovirus cell entry assay, luminescence
Results filed as inconclusive are left out. Active and inactive are the calls of the source. Calls come from the whole dose curve.
Possible outcomes: active, inactive

{"columns": ["line-notation", "category-label"],
 "data": [
  ["CC(C)Nc1cc(-c2c[nH]c(C(=O)N[C@H](CO)c3cccc(Cl)c3)c2)c(Cl)cn1", "active"],
  ["CCOC(=O)[C@H](CS)NCCN[C@@H](CS)C(=O)OCC", "inactive"],
  ["COc1cc2nc(-c3cc(F)ccc3O)nc(N[C@@H]3CNC[C@H]3C(C)(C)O)c2cc1OC", "active"],
  ["Cc1cc(-c2nc3cc(F)ccc3s2)ccc1NC(=O)[C@@H](N)CCCCN", "active"],
  ["CC(=O)OCC1=C(C(=O)O)N2C(=O)[C@@H](NC(=O)CC#N)[C@H]2SC1", "inactive"]
]}
